Recorded EC50 pSTAT5, CD8 Memory, one value per entry.
target-desc: T1, IL-7 receptor (IL-7Rα/γc heterodimer) on primary human T cells (human, UniProt P16871 21-459; P31785 23-369)
T1 sequence (looked up) 1: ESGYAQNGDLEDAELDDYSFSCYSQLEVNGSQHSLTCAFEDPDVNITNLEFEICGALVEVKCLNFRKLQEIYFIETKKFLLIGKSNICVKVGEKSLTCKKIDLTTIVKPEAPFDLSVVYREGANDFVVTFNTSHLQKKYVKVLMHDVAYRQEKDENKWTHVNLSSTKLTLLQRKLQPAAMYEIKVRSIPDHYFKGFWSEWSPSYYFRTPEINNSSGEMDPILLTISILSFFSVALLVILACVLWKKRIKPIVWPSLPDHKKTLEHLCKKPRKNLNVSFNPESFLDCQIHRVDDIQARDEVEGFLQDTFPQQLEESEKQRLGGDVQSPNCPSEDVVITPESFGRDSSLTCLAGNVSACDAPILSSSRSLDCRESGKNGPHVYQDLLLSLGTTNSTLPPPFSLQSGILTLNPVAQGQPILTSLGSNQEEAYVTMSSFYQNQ
T1 sequence (looked up) 2: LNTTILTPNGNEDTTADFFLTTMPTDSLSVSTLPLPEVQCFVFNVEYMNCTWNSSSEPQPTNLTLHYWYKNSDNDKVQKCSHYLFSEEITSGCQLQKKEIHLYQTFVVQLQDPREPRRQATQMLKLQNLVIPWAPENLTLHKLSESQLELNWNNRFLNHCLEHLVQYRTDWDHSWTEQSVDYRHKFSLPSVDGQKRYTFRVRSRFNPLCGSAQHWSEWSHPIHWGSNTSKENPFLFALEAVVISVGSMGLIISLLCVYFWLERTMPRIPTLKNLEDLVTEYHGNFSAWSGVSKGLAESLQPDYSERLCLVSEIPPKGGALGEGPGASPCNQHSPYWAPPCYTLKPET
assay-text: cell-based or functional assay
Bridges are numbered along the chain shown (N, C = ends). [ ]: non-standard residue; d: D form. glutaryl‑PEG9‑azide = glutaryl-PEG9-azide group on the N-terminal amine; hSer = N[C@@H](CCO)C(=O)O; Nle = CCCC[C@H](N)C(=O)O

binder	EC50 pSTAT5, CD8 Memory / pM
CMP-108, synthetic IL-7 of SEQ ID NO: 3 with glutaryl-PEG9-azide at the N-terminus (ligand, disulfide 34-129, 47-141, 2-92, The suffix is not explained; also called synthetic IL-7, WT with an N-terminal conjugation handle) {glutaryl‑PEG9‑azide}-DCDIEGKDGKQYESVL[Nle]VSIDQLLDS[Nle]KEIGSNCL[hSer]NEFNFFKRHICDANKEG[Nle]FLFRAARKLRQFLK[Nle]NSTGDF[hSer]LHLLKVSEGTTILLNCTGQVKGRKPAALGEAQPTKSL[hSer]ENKSLKEQKKLNDLCFLKRLLQEIKTCWNKIL[Nle]GTKEH-NH2	8
CMP-200, IL-7 syntein missing C2-C92 disulphide bond, N-terminus with glutaric acid and azido-PEG (ligand, disulfide 34-129, 47-141, also called CMP-200-001) {glutaryl‑PEG9‑azide}-DSDIEGKDGKQYESVL[Nle]VSIDQLLDS[Nle]KEIGSNCL[hSer]NEFNFFKRHICDANKEG[Nle]FLFRAARKLRQFLK[Nle]NSTGDF[hSer]LHLLKVSEGTTILLNSTGQVKGRKPAALGEAQPTKSL[hSer]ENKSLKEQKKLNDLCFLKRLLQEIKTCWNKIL[Nle]GTKEH-NH2	40
CMP-114, CMP-108 conjugated to 30 kDa DBCO PEG at the N-terminus (ligand, disulfide 34-129, 47-141, 2-92; not fully specified (N-terminus); also: N-terminal azide conjugated to 30 kDa DBCO-PEG) DCDIEGKDGKQYESVL[Nle]VSIDQLLDS[Nle]KEIGSNCL[hSer]NEFNFFKRHICDANKEG[Nle]FLFRAARKLRQFLK[Nle]NSTGDF[hSer]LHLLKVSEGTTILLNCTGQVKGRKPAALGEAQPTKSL[hSer]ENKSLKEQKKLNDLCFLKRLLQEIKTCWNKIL[Nle]GTKEH-NH2	4
CMP-036, synthetic IL-7 of SEQ ID NO: 3 (no N-terminal conjugation handle) (ligand, ends and bridges not checked) DCDIEGKDGKQYESVL[Nle]VSIDQLLDS[Nle]KEIGSNCL[hSer]NEFNFFKRHICDANKEG[Nle]FLFRAARKLRQFLK[Nle]NSTGDF[hSer]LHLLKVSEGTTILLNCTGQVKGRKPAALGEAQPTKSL[hSer]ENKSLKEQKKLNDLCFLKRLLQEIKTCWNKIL[Nle]GTKEH	6
CMP-035, recombinant human native IL-7 with His-tag (ligand, also called WT IL-7 His; recombinant IL-7 (WT)) DCDIEGKDGKQYESVLMVSIDQLLDSMKEIGSNCLNNEFNFFKRHICDANKEGMFLFRAARKLRQFLKMNSTGDFDLHLLKVSEGTTILLNCTGQVKGRKPAALGEAQPTKSLEENKSLKEQKKLNDLCFLKRLLQEIKTCWNKILMGTKEHVDHHHHHH	6
CMP-117, recombinant IL-7 Q11F with His-tag (ligand) DCDIEGKDGKFYESVLMVSIDQLLDSMKEIGSNCLNNEFNFFKRHICDANKEGMFLFRAARKLRQFLKMNSTGDFDLHLLKVSEGTTILLNCTGQVKGRKPAALGEAQPTKSLEENKSLKEQKKLNDLCFLKRLLQEIKTCWNKILMGTKEHVDHHHHHH	2
